Where these numbers come from: paper PMC4052546

# ASSAY REMARKS: Pharmacokinetics of AS and DHA in rat plasma after single and multiple intravenous AS injections (automated blood sampler, LC-MS/MS)
# Type: in vivo, Sprague-Dawley rats
# PROTOCOL CONDITIONS: male, Sprague-Dawley, rat, plasma, iv, 20 mg/kg, WRAIR formulation (AS/0.3M PBS Buffer), 20 mg/kg i.v. daily for 3 days, male rats, Period 1, Day 1; read-out: AUC0–3 h
READOUT KIND: AUC(0-t) (ng·h/mL)

a. C[C@H]1[C@H](OC(=O)CCC(=O)O)O[C@@H]2O[C@@]3(C)CC[C@H]4[C@H](C)CC[C@@H]1[C@@]24OO3 [AS, artesunate]
b. C[C@H]1[C@@H](O)O[C@@H]2O[C@@]3(C)CC[C@H]4[C@H](C)CC[C@@H]1[C@@]24OO3 [DHA, dihydroartemisinin]
Exercise: // compare measured AUC(0-t), left a , right b , return larger Kindly give the label for the entry you pick.
Key: b

###

# ASSAY REMARKS: Pharmacokinetics of AS and DHA in rat plasma after single and multiple intravenous AS injections (automated blood sampler, LC-MS/MS)
# Assay type: in vivo, Sprague-Dawley rats
# PROTOCOL CONDITIONS: male, Sprague-Dawley, rat, plasma, iv, 20 mg/kg, WRAIR formulation (AS/0.3M PBS Buffer), 20 mg/kg i.v. daily for 3 days, male rats, Period 2, Day 1
READOUT KIND: Tmax (min)

1. C[C@H]1[C@@H](O)O[C@@H]2O[C@@]3(C)CC[C@H]4[C@H](C)CC[C@@H]1[C@@]24OO3 [DHA, dihydroartemisinin]
2. C[C@H]1[C@H](OC(=O)CCC(=O)O)O[C@@H]2O[C@@]3(C)CC[C@H]4[C@H](C)CC[C@@H]1[C@@]24OO3 [AS, artesunate]
Exercise: // compare measured Tmax, left 1 , right 2 , return larger Kindly give the label for the entry you pick.
Key: 1

###

# ASSAY REMARKS: Pharmacokinetics of AS and DHA in rat plasma after single and multiple intravenous AS injections (automated blood sampler, LC-MS/MS)
# Format: in vivo, Sprague-Dawley rats
# PROTOCOL CONDITIONS: male, Sprague-Dawley, rat, plasma, iv, 20 mg/kg, Chinese formulation (AS/NaHCO3), 20 mg/kg i.v. daily for 3 days, male rats, Period 2, Day 1; read-out: AUC0–3 h
READOUT KIND: AUC(0-t) (µg·h/mL)

- COMPOUND: "C[C@H]1[C@@H](O)O[C@@H]2O[C@@]3(C)CC[C@H]4[C@H](C)CC[C@@H]1[C@@]24OO3 [DHA, dihydroartemisinin]"
  READOUT KIND: "AUC(0-t)"
  REPORTED: 1.22
- COMPOUND: "C[C@H]1[C@H](OC(=O)CCC(=O)O)O[C@@H]2O[C@@]3(C)CC[C@H]4[C@H](C)CC[C@@H]1[C@@]24OO3 [AS, artesunate]"
  READOUT KIND: "AUC(0-t)"
  REPORTED: 0.932

###

# ASSAY REMARKS: Pharmacokinetics of AS and DHA in rat plasma after single and multiple intravenous AS injections (automated blood sampler, LC-MS/MS);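 note: blood drawn through a jugular vein catheter by an automated sampling system, plasma drug levels measured by LC-MS/MS with positive electrospray ionization against standard curves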
# Format: in vivo, Sprague-Dawley rats
# PROTOCOL CONDITIONS: male, Sprague-Dawley, rat, plasma, iv, 20 mg/kg, Chinese formulation (AS/NaHCO3), 20 mg/kg i.v. daily for 3 days, male rats, Period 2, Day 1; read-out: AUCinfininty
READOUT KIND: AUC (ng·h/mL)

- COMPOUND: "C[C@H]1[C@H](OC(=O)CCC(=O)O)O[C@@H]2O[C@@]3(C)CC[C@H]4[C@H](C)CC[C@@H]1[C@@]24OO3 [AS, artesunate]"
  AUC [ng·h/mL]: 935
- COMPOUND: "C[C@H]1[C@@H](O)O[C@@H]2O[C@@]3(C)CC[C@H]4[C@H](C)CC[C@@H]1[C@@]24OO3 [DHA, dihydroartemisinin]"
  AUC [ng·h/mL]: 1230
